- target-under-test: MSI1 (Musashi1) (UniProt Q61474 1-362)
- Sequence (Q61474 whole entry): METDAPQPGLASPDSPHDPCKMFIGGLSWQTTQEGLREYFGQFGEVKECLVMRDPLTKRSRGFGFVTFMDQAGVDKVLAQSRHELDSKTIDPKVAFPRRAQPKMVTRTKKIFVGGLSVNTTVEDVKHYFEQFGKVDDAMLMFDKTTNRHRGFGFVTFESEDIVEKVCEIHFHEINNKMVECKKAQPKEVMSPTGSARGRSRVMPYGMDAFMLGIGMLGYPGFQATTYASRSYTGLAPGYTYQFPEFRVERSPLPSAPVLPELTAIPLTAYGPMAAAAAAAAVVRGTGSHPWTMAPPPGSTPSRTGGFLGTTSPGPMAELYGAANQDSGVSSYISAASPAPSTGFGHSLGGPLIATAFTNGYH
- method-description: EMSA; mean of 2 gel shifts; EMSA buffer not given; RBNS: 25 mM Tris pH 7.5, 150 mM KCl, 3 mM MgCl2, 0.01% Tween, 1 mg/ml BSA, 1 mM DTT, 30 ug/ml poly I/C, room temperature
- settings: protein: recombinant; tags: SBP tag (N-terminal); GST removed by PreScission
Could you please report measured Kd for the items listed next?
Give bare numbers, in nM.

Exercise: Param item = UGUCCAGUUAGAUCACUGUUUAGAU (ssRNA) [Jag1 3' UTR region 1] ; retrieve measured Kd.
Solution: 15

***
Exercise: Requested field: Kd. Item: UCAAAGUAGAAUUUUUGUAUAGUUAUGUAAAUAAU (ssRNA) [Jag1 3' UTR region 2]
Solution: 9
